Sourced from patent US4988681A

test: Pharmacokinetic evaluation: plasma concentration in rats; format: in vivo, Male SD rats; conditions: plasma; rat, po 10 mg/kg, trapezoidal rule
Measured AUC accompanies every entry in the list below.
experimental readout: AUC (ng·h/mL)

> print(dat)
                                   molecule  experimental.readout  result
1  CC1(C)CC1P(=O)(O)C/C(=C\C1CCCCC1)C(=O)O (centres unmarked)                   AUC   22500
2    O=C(O)/C(=C/C1CCCCC1)CP(=O)(O)CC1CCCC1                   AUC   18400
3   O=C(O)/C(=C/C1CCCCC1)CP(=O)(O)CC1CCCCC1                   AUC   19000
4      CC(C)CP(=O)(O)C/C(=C\C1CCCCC1)C(=O)O                   AUC   24300
5         CC(C)CP(=O)(O)C/C(=C\C1CC1)C(=O)O                   AUC    3900

====

test: Pharmacokinetic evaluation: plasma concentration in rats; assay type: in vivo, Male SD rats; settings: rat, plasma; ester po, 10 mg/kg equivalent to compound No. 2, calculated as free acid (No. 2), 2 h
experimental readout: concentration at 2 h (ng/mL)

> print(dat)
                               smiles.entry  output.unit  result
1  Cc1oc(=O)oc1COC(=O)/C(=C/C1CCCCC1)CP(=O)(O)CC(C)C        ng/mL    9300

====

experiment: Pharmacokinetic evaluation: plasma concentration in dogs; type: in vivo, Male beagle dogs; settings: dog, iv 10 mg/kg, 2 h
experimental readout: concentration at 2 h (ng/mL)

> print(dat)
                           smiles.entry  experimental.readout  output.unit  result
1  CC(C)CP(=O)(O)C/C(=C\C1CCCCC1)C(=O)O  concentration at 2 h        ng/mL   24500

====

Parameter: concentration at 6 h. Scope: all listed entries.
experiment: Pharmacokinetic evaluation: plasma concentration in rats; format: in vivo, Male SD rats; details: rat, plasma; po 10 mg/kg, 6 h
experimental readout: concentration at 6 h (ng/mL)

> print(dat)
                                   molecule  result
1         CC(C)CP(=O)(O)C/C(=C\C1CC1)C(=O)O     200
2    O=C(O)/C(=C/C1CCCCC1)CP(=O)(O)CC1CCCC1    1000
3  CC1(C)CC1P(=O)(O)C/C(=C\C1CCCCC1)C(=O)O (centres unmarked)    1100
4      CC(C)CP(=O)(O)C/C(=C\C1CCCCC1)C(=O)O    1200
5   O=C(O)/C(=C/C1CCCCC1)CP(=O)(O)CC1CCCCC1    1100

====

assay: Pharmacokinetic evaluation: plasma concentration in rats; assay type: in vivo, Male SD rats; conditions: rat, plasma; po 10 mg/kg, 4 h
experimental readout: concentration at 4 h (ng/mL)

> print(dat)
                                   molecule  experimental.readout  result
1   O=C(O)/C(=C/C1CCCCC1)CP(=O)(O)CC1CCCCC1  concentration at 4 h    1900
2      CC(C)CP(=O)(O)C/C(=C\C1CCCCC1)C(=O)O  concentration at 4 h    2100
3         CC(C)CP(=O)(O)C/C(=C\C1CC1)C(=O)O  concentration at 4 h     300
4    O=C(O)/C(=C/C1CCCCC1)CP(=O)(O)CC1CCCC1  concentration at 4 h    2100
5  CC1(C)CC1P(=O)(O)C/C(=C\C1CCCCC1)C(=O)O (centres unmarked)  concentration at 4 h    2400

====

assay: Pharmacokinetic evaluation: plasma concentration in rats; type: in vivo, Male SD rats; conditions: rat, plasma; iv 10 mg/kg, 4 h
experimental readout: log10(concentration at 4 h) (log10 of the value in ng/mL)

> print(dat)
                                   compound  result
1  CC(C)CP(=O)(O)C/C(=C\C1CCCCC1)C(=O)O [Compound No. 2]    4.02
2  O=C(O)/C(=C/C1CCCCC1)CP(=O)(O)CC1CCCCC1 [Compound No. 28]    3.68
3  CC1(C)CC1P(=O)(O)C/C(=C\C1CCCCC1)C(=O)O (stereo not shown) [Compound No. 5]    3.67
4  CC(C)CP(=O)(O)C/C(=C\CCCC(=O)O)C(=O)O [Compound No. 14]    2.00
5  O=C(O)/C(=C/C1CCCCC1)CP(=O)(O)CC1CCCC1 [Compound No. 17]    4.17
6  CC(C)CP(=O)(O)C/C(=C\CCCSC[C@H](N)C(=O)O)C(=O)O [Compound No. 23]    2.00
7  CC(C)CP(=O)(O)C/C(=C\C1CC1)C(=O)O [Compound No. 10]    3.04

====

In this section, each of the compounds is paired with its reported concentration at 2 h.
Assay: Pharmacokinetic evaluation: plasma concentration in rats
Format: in vivo, Male SD rats
Details: rat, plasma; iv 10 mg/kg, 2 h
Experimental: (4) Pharmacokinetic evaluations Male SD rats ([…]) were divided into groups each consisting of three animals. […] Furthermore, cilastatin was intravenously administered to a 14th group as a control group. Plasma samples were taken periodically from the carotid artery through a cannula inserted into it at the points of 1/12, 1/4, 1/2, 1, 2, 4, 6, 8 and 24 hours after the administration. The area under the curve (AUC) of the plasma concentration was determined according to the trapezoidal rule.
experimental readout: concentration at 2 h (ng/mL)

> print(dat)
                                   compound  experimental.readout  result
1      CC(C)CP(=O)(O)C/C(=C\C1CCCCC1)C(=O)O  concentration at 2 h   21800
2     CC(C)CP(=O)(O)C/C(=C\CCCC(=O)O)C(=O)O  concentration at 2 h     300
3  CC1(C)CC1P(=O)(O)C/C(=C\C1CCCCC1)C(=O)O (stereo not shown)  concentration at 2 h   11900
4    O=C(O)/C(=C/C1CCCCC1)CP(=O)(O)CC1CCCC1  concentration at 2 h   25200
5  CC(C)CP(=O)(O)C/C(=C\CCCSC[C@H](N)C(=O)O)C(=O)O  concentration at 2 h     900
6         CC(C)CP(=O)(O)C/C(=C\C1CC1)C(=O)O  concentration at 2 h    5200
7   O=C(O)/C(=C/C1CCCCC1)CP(=O)(O)CC1CCCCC1  concentration at 2 h   11700

====

Experiment: Pharmacokinetic evaluation: plasma concentration in rats
Type: in vivo, Male SD rats
Settings: rat, plasma; po 10 mg/kg, 8 h; N.D.: below the detection limit
Method: (4) Pharmacokinetic evaluations Male SD rats ([…]) were divided into groups each consisting of three animals. […] Furthermore, cilastatin was intravenously administered to a 14th group as a control group. Plasma samples were taken periodically from the carotid artery through a cannula inserted into it at the points of 1/12, 1/4, 1/2, 1, 2, 4, 6, 8 and 24 hours after the administration. The area under the curve (AUC) of the plasma concentration was determined according to the trapezoidal rule.
The reader will find reported concentration at 8 h values listed item by item below.
experimental readout: concentration at 8 h (ng/mL)

> print(dat)
                                   molecule  result
1  O=C(O)/C(=C/C1CCCCC1)CP(=O)(O)CC1CCCCC1 [Compound No. 28]     500
2  CC1(C)CC1P(=O)(O)C/C(=C\C1CCCCC1)C(=O)O (stereo not shown) [Compound No. 5]     300
3  CC(C)CP(=O)(O)C/C(=C\C1CCCCC1)C(=O)O [Compound No. 2]     400
4  O=C(O)/C(=C/C1CCCCC1)CP(=O)(O)CC1CCCC1 [Compound No. 17]     100

====

assay: Pharmacokinetic evaluation: plasma concentration in rats; format: in vivo, Male SD rats; settings: rat, in vivo; iv 10 mg/kg (cilastatin dose not given), 1/12 h
experimental readout: concentration at 5 min

> print(dat)
                                   compound       result
1  CC1(C)C[C@@H]1C(=O)N/C(=C\CCCCSC[C@H](N)C(=O)O)C(=O)O [Cilastatin, reference compound]  46900 ng/mL

====

assay: Pharmacokinetic evaluation: plasma concentration in rats; assay type: in vivo, Male SD rats; conditions: rat, plasma; iv 10 mg/kg (cilastatin dose not given), 1/12 h
Note to self: use rule met only for concentration at 5 min readings below 50 µg/mL; a reading exactly at 50 µg/mL still gets rule not met.

> print(dat)
                                   molecule  assigned.label
1    O=C(O)/C(=C/C1CCCCC1)CP(=O)(O)CC1CCCC1    rule not met
2   O=C(O)/C(=C/C1CCCCC1)CP(=O)(O)CC1CCCCC1    rule not met
3         CC(C)CP(=O)(O)C/C(=C\C1CC1)C(=O)O        rule met
4     CC(C)CP(=O)(O)C/C(=C\CCCC(=O)O)C(=O)O        rule met
5      CC(C)CP(=O)(O)C/C(=C\C1CCCCC1)C(=O)O    rule not met
6  CC1(C)CC1P(=O)(O)C/C(=C\C1CCCCC1)C(=O)O (stereo not shown)    rule not met
7  CC(C)CP(=O)(O)C/C(=C\CCCSC[C@H](N)C(=O)O)C(=O)O        rule met
